# Test system: CD69 expression
# PROTOCOL_NOTES: Blockade of CD69 Expression in Human Whole Blood Samples
# Type: cell-based
# STUDY_CONDITIONS: 30 minutes pre-incubation, activation with anti-IgM, cells gated on CD20, CD69 by FACS
# Description: Activation of the B cell receptor leads to increased BTK activity, calcium mobilization and B cell activation (see Honigberg L. A., et. al., Proc Natl Acad Sci USA. 107:13075-80. 2010). […] Whole blood was then lysed and cells gated on CD20 expression were quantified for CD 69 expression by FACS. The percent inhibition was calculated based on a DMSO control for no inhibition and plotted as a function of test compound concentration from which an IC50 value was calculated.
MEASURED_PARAMETER: IC50 (µM)

CC(C)(/C=C(\C#N)C(=O)N1CCC[C@H]1Cc1nc(-c2ccc(Oc3ccccc3)cc2F)c2c(N)nccn12)N1CCOCC1 ... 0.165

1: CN1CCN(C(C)(C)C=C(C#N)C(=O)N2CCC[C@H]2Cn2nc(-c3ccc(Oc4ccccc4)cc3F)c3c(N)nccc32)CC1
2: CC(C)(C=C(C#N)C(=O)N1CCC[C@H]1Cc1nc(-c2ccc(Oc3ccccc3)cc2F)c2c(N)nccn12)N1CCN(C2COC2)CC1
3: CN1CCN(C(C)(C)/C=C(\C#N)C(=O)N2CCC[C@@H](n3nc(-c4ccc(Oc5ccccc5)cc4F)c4c(N)nccc43)C2)CC1
4: CC(C)(C=C(C#N)C(=O)N1CCC[C@@H](n2nc(-c3ccc(Oc4ccccc4)cc3F)c3c(N)nccc32)C1)N1CCNC(=O)C1
5: CC(C)(C=C(C#N)C(=O)N1CCC[C@H]1Cn1nc(-c2ccc(Oc3ccccc3)cc2F)c2c(N)nccc21)N1CCN(C2COC2)CC1
[ask] I would appreciate it if you could sort these 5 molecules by IC50, starting from the smallest number. Returns: the labels arranged in the requested order.
[reply] 2, 3, 4, 1, 5
(2: 0.178 µM, 3: 0.289 µM, 4: 0.577 µM, 1: 0.874 µM, 5: 1.29 µM)

###

# TARGET_OF_ASSAY: human recombinant BTK (Homo sapiens (Human), UniProt Q06187)
# Sequence (Q06187 whole entry): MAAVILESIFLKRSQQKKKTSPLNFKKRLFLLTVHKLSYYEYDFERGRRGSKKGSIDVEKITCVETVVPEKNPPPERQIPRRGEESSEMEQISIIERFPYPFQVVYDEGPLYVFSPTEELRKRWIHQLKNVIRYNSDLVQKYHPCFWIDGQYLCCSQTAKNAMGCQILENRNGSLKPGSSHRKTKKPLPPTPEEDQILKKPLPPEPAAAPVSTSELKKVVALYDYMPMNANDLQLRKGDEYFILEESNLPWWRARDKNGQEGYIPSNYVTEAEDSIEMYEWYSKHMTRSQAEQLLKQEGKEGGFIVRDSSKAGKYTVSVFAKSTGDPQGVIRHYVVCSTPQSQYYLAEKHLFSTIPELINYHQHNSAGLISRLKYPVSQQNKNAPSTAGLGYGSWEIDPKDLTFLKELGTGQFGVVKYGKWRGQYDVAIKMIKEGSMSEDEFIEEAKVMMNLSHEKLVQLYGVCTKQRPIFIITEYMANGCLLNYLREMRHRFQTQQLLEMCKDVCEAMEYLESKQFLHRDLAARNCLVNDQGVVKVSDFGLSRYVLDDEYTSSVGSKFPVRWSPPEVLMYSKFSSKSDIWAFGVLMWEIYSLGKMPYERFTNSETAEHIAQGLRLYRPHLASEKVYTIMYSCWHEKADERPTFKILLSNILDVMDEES
# PROTOCOL_NOTES: BTK Enzymatic Activity Assay (Caliper-based kinase assay)
# STUDY_CONDITIONS: human recombinant BTK (0.5 nM), ATP (16 μM), peptide substrate (1 μM), room temperature for 3 h
MEASURED_PARAMETER: IC50 (nM)

CC(C)(C=C(C#N)C(=O)N1CCC[C@@H](n2nc(-c3ccc(Oc4ccccc4)cc3)c3c(N)nccc32)C1)N1CCN(C2(C)COC2)CC1 [Compound 39] ... 1.3

A: CN1CCN(C(=O)C(C#N)=CC(C)(C)C)C[C@@H]1c1nc(-c2ccc(Oc3ccccc3)cc2)c2c(N)nccn12 [Compound 66]
B: CC1(C=C(C#N)C(=O)N2CCC[C@@H](c3nc(-c4ccc(Oc5ccccc5)cc4)c4c(N)nccn34)C2)CCOCC1 [Compound 54]
[ask] Which record shows the lower IC50: the first, A , or the second, B ? Your answer should be the label of the entry you select.
[reply] A
